# Subject Of Test: Neuronal acetylcholine receptor subunit alpha-7 (Homo sapiens, UniProt P36544)
# Sequence (P36544 whole entry): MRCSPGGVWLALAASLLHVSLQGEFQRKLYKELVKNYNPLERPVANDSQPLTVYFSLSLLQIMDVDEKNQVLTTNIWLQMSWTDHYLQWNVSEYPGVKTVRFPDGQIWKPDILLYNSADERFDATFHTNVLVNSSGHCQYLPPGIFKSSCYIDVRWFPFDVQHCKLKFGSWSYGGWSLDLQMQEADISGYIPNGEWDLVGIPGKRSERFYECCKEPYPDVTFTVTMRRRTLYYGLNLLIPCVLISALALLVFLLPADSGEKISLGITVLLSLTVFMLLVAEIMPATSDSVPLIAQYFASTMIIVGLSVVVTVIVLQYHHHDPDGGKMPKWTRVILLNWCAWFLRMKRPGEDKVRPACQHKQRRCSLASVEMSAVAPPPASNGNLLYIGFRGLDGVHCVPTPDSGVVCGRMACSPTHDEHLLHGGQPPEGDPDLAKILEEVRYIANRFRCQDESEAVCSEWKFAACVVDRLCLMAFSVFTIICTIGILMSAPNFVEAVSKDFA
# Test Name: Agonist activity at human alpha7 nAChR expressed in Xenopus laevis oocytes assessed as increase in channel currents at 30 uM at -60 mV holding potential by two electrode voltage clamp assay
# Format: cell-based
Active and inactive are the calls of the source. The rule behind the calls is not given here.
Measured Endpoint: Activity

COc1ccc(-c2cc(N(Cc3ccccn3)Cc3ccccn3)nc(N)n2)c(F)c1 ... Active
COc1ccccc1-c1cc(N(Cc2ccccn2)Cc2ccccn2)ncn1 ... Active
COc1ccc(-c2cc(N(Cc3ccccn3)Cc3ccccn3)ncn2)c(F)c1 ... Active
COc1ccccc1-c1cc(N(Cc2ccccn2)Cc2ccccn2)nc(N)n1 ... Active

---

# Subject Of Test: Neuronal acetylcholine receptor subunit alpha-7 (Homo sapiens, UniProt P36544)
# Test Name: Agonist activity at human alpha7 nAChR expressed in Xenopus laevis oocytes assessed as increase in channel currents at -60 mV holding potential by two electrode voltage clamp assay relative Ach
# Type: cell-based
For each record, write down the corresponding EC50.
The reply must contain the numeric value and, after it, the unit.

Ask | Look up and report measured EC50 (Neuronal acetylcholine receptor subunit alpha-7 (Homo sapiens, UniProt P36544)) for the following molecule: `COc1ccc(-c2cc(N(Cc3ccccn3)Cc3ccccn3)ncn2)c(F)c1`
Reply | 600 nM

Ask | Look up and report measured EC50 (Neuronal acetylcholine receptor subunit alpha-7 (Homo sapiens, UniProt P36544)) for the following molecule: `COc1ccc(-c2cc(N(Cc3ccccn3)Cc3ccccn3)nc(N)n2)c(F)c1`
Reply | 110 nM

Ask | Look up and report measured EC50 (Neuronal acetylcholine receptor subunit alpha-7 (Homo sapiens, UniProt P36544)) for the following molecule: `COc1ccccc1-c1cc(N(Cc2ccccn2)Cc2ccccn2)ncn1`
Reply | 3350 nM

Ask | Look up and report measured EC50 (Neuronal acetylcholine receptor subunit alpha-7 (Homo sapiens, UniProt P36544)) for the following molecule: `COc1ccccc1-c1cc(N(Cc2ccccn2)Cc2ccccn2)nc(N)n1`
Reply | 350 nM

---

# Subject Of Test: Neuronal acetylcholine receptor; alpha4/beta2 (Homo sapiens) (UniProt P17787+P43681)
# Test Name: Inhibition of human (alpha4)2 (beta2)3 nAChR expressed in Xenopus laevis oocytes assessed as increase in channel currents at 30 uM at -60 mV holding potential by two electrode voltage clamp assay
# Assay type: cell-based
Active and inactive are the calls of the source. The calls are words filed in the database; no cut-off is given here.
Measured Endpoint: inhibition

COc1ccc(-c2cc(N(Cc3ccccn3)Cc3ccccn3)nc(N)n2)c(F)c1 ... inactive
COc1ccccc1-c1cc(N(Cc2ccccn2)Cc2ccccn2)nc(N)n1 ... inactive
COc1ccc(-c2cc(N(Cc3ccccn3)Cc3ccccn3)ncn2)c(F)c1 ... inactive
COc1ccccc1-c1cc(N(Cc2ccccn2)Cc2ccccn2)ncn1 ... inactive

---

# Subject Of Test: 5-hydroxytryptamine receptor 3A (Homo sapiens) (UniProt P46098)
# Sequence (whole entry): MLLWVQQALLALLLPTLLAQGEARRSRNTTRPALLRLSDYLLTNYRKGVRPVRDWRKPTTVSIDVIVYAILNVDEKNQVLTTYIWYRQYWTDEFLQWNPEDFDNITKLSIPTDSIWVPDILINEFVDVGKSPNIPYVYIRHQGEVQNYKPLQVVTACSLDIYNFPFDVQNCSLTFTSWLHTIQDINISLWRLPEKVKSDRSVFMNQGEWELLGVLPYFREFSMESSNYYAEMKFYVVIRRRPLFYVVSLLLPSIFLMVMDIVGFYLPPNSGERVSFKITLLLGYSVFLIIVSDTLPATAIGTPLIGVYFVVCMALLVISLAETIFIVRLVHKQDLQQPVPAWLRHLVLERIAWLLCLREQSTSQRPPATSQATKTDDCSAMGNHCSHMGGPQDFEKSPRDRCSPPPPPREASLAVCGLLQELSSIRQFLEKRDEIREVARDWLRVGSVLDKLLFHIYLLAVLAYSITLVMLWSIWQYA
# Test Name: Antagonist activity at 5HT3A (unknown origin) transfected in HEK cells assessed as decrease in agonist-induced intracellular calcium release incubated for 30 mins by FRET assay
# Assay type: cell-based
For each record, write down the corresponding Ka.

Ask | Assign Ka to the following record: `COc1ccccc1-c1cc(N(Cc2ccccn2)Cc2ccccn2)nc(C(F)(F)F)n1`
Reply | 3.7 µM

Ask | Assign Ka to the following record: `COc1ccc(-c2cc(N(Cc3ccccn3)Cc3ccccn3)nc(N)n2)c(OC)c1`
Reply | > 10 µM

Ask | Assign Ka to the following record: `CSc1ccccc1-c1cc(N(Cc2ccccn2)Cc2ccccn2)nc(N)n1`
Reply | > 10 µM

Ask | Assign Ka to the following record: `Nc1nc(-c2ccsc2)cc(N(Cc2ccccn2)Cc2ccccn2)n1`
Reply | > 10 µM

Ask | Assign Ka to the following record: `COc1ccc(-c2cc(N(Cc3ccccn3)Cc3ccccn3)ncn2)c(F)c1`
Reply | 5.4 µM

Ask | Assign Ka to the following record: `Nc1nc(-c2ccccc2Cl)cc(N(Cc2ccccn2)Cc2ccccn2)n1`
Reply | > 10 µM

Ask | Assign Ka to the following record: COc1ccccc1-c1cc(N(Cc2ccccn2)Cc2ccccn2)nc([S+](C)[O-])n1 (stereo not drawn)
Reply | > 10 µM

Ask | Assign Ka to the following record: `c1ccc(CN(Cc2ccccn2)c2cc(N3CCOCC3)ncn2)nc1`
Reply | > 10 µM

Ask | Assign Ka to the following record: `FC(F)(F)c1nc(-c2ccsc2)cc(N(Cc2ccccn2)Cc2ccccn2)n1`
Reply | 3.6 µM

Ask | Assign Ka to the following record: `COc1ccccc1-c1cc(N(Cc2ccccn2)Cc2ccccn2)nc(S(C)(=O)=O)n1`
Reply | > 10 µM

Ask | Assign Ka to the following record: `COc1cc(F)ccc1-c1cc(N(Cc2ccccn2)Cc2ccccn2)nc(N)n1`
Reply | > 10 µM

Ask | Assign Ka to the following record: `Fc1ccccc1-c1cc(N(Cc2ccccn2)Cc2ccccn2)ncn1`
Reply | 8.4 µM

Ask | Assign Ka to the following record: `c1ccc(CN(Cc2ccccn2)c2cc(-c3ccsc3)ncn2)nc1`
Reply | > 10 µM

Ask | Assign Ka to the following record: `CC(C)Oc1ccccc1-c1cc(N(Cc2ccccn2)Cc2ccccn2)nc(N)n1`
Reply | > 10 µM

Ask | Assign Ka to the following record: `COc1ncccc1-c1cc(N(Cc2ccccn2)Cc2ccccn2)nc(N)n1`
Reply | > 10 µM

Ask | Assign Ka to the following record: `CC(C)COc1ccccc1-c1cc(N(Cc2ccccn2)Cc2ccccn2)nc(N)n1`
Reply | 5.5 µM

Ask | Assign Ka to the following record: `COc1cccc(OC)c1-c1cc(N(Cc2ccccn2)Cc2ccccn2)nc(N)n1`
Reply | > 10 µM

Ask | Assign Ka to the following record: `COc1ccccc1-c1cc(N(Cc2ccccn2)Cc2ccccn2)nc(SC)n1`
Reply | 2.8 µM

---

# Subject Of Test: Neuronal acetylcholine receptor; alpha4/beta2 (Homo sapiens) (UniProt P17787+P43681)
# Test Name: Agonist activity at human (alpha4)3 (beta2)2 nAChR expressed in Xenopus laevis oocytes assessed as increase in channel currents at 30 uM at -60 mV holding potential by two electrode voltage clamp assay
# Format: cell-based
The source made the active and inactive calls. The rule behind the calls is not given here.
Measured Endpoint: Activity

COc1ccc(-c2cc(N(Cc3ccccn3)Cc3ccccn3)nc(N)n2)c(F)c1 ... inactive
COc1ccccc1-c1cc(N(Cc2ccccn2)Cc2ccccn2)ncn1 ... inactive
COc1ccccc1-c1cc(N(Cc2ccccn2)Cc2ccccn2)nc(N)n1 ... inactive
COc1ccc(-c2cc(N(Cc3ccccn3)Cc3ccccn3)ncn2)c(F)c1 ... inactive

---

For each record, write down the corresponding Ka.
# Subject Of Test: Neuronal acetylcholine receptor; alpha4/beta2 (Homo sapiens) (UniProt P17787+P43681)
# Test Name: Antagonist activity at alpha4beta2 nAChR (unknown origin) transfected in HEK cells assessed as decrease in epibatidine-induced intracellular calcium release incubated for 30 mins by FRET assay
Use µM as the unit, but write only the number.

Ask | Assign Ka to the following record: `COc1ccccc1-c1cc(N(Cc2ccccc2)Cc2ccccn2)nc(N)n1`
Reply | 1.3

Ask | Assign Ka to the following record: `Nc1nc(-c2ccccc2Cl)cc(N(Cc2ccccn2)Cc2ccccn2)n1`
Reply | 3.4

Ask | Assign Ka to the following record: `COc1ccc(-c2cc(N(Cc3ccccn3)Cc3ccccn3)nc(N)n2)c(F)c1`
Reply | 3.2

Ask | Assign Ka to the following record: `CC(C)Oc1ccccc1-c1cc(N(Cc2ccccn2)Cc2ccccn2)nc(N)n1`
Reply | 1.5

Ask | Assign Ka to the following record: `COc1ccccc1-c1cc(N(Cc2ccccn2)Cc2ccccn2)nc(C(F)(F)F)n1`
Reply | 1.7

Ask | Assign Ka to the following record: `CC(C)COc1ccccc1-c1cc(N(Cc2ccccn2)Cc2ccccn2)nc(N)n1`
Reply | 1.3

---

# Subject Of Test: Neuronal acetylcholine receptor subunit alpha-7 (Homo sapiens)
# Test Name: Agonist activity at human alpha7 nAChR transfected in HEK cells assessed as increase in intracellular calcium release incubated for 30 mins in presence of PNU-120596 by FRET assay
# Assay type: cell-based
Threshold check on EC50: strictly below 200 nM is rule met; on or above 200 nM is rule not met.

Ask | Does the reported EC50 of `CC(C)Oc1ccccc1-c1cc(N(Cc2ccccn2)Cc2ccccn2)nc(N)n1` stay below 200 nM?
Reply | rule not met

Ask | Does the reported EC50 of `FC(F)(F)c1nc(-c2ccsc2)cc(N(Cc2ccccn2)Cc2ccccn2)n1` stay below 200 nM?
Reply | rule not met

Ask | Does the reported EC50 of `COc1ccc(-c2cc(N(Cc3ccccn3)Cc3ccccn3)ncn2)c(F)c1` stay below 200 nM?
Reply | rule met

Ask | Does the reported EC50 of `COc1cc(F)ccc1-c1cc(N(Cc2ccccn2)Cc2ccccn2)nc(N)n1` stay below 200 nM?
Reply | rule met

Ask | Does the reported EC50 of `COc1ccccc1-c1cc(N(Cc2ccccn2)Cc2ccccn2)nc(C(F)(F)F)n1` stay below 200 nM?
Reply | rule not met

Ask | Does the reported EC50 of `Fc1ccccc1-c1cc(N(Cc2ccccn2)Cc2ccccn2)ncn1` stay below 200 nM?
Reply | rule not met

Ask | Does the reported EC50 of `COc1ccc(-c2cc(N(Cc3ccccn3)Cc3ccccn3)nc(N)n2)c(F)c1` stay below 200 nM?
Reply | rule met

Ask | Does the reported EC50 of `COc1ccccc1-c1cc(N(Cc2ccccc2)Cc2ccccn2)nc(N)n1` stay below 200 nM?
Reply | rule not met

Ask | Does the reported EC50 of `CSc1ccccc1-c1cc(N(Cc2ccccn2)Cc2ccccn2)nc(N)n1` stay below 200 nM?
Reply | rule not met

Ask | Does the reported EC50 of `COc1ccccc1-c1cc(N(Cc2ccccn2)Cc2ccccn2)ncn1` stay below 200 nM?
Reply | rule met
